Origin of measurements: patent US20110118239A1

In this section we review reported EC50 values for a set of compounds.
# system tested: human α4β2 NNRs (Homo sapiens, UniProt P17787+P43681)
# Construct: expressed in transfected cells; host or cells: SH-EP1
# Sequence (P43681 29-627 limits assumed): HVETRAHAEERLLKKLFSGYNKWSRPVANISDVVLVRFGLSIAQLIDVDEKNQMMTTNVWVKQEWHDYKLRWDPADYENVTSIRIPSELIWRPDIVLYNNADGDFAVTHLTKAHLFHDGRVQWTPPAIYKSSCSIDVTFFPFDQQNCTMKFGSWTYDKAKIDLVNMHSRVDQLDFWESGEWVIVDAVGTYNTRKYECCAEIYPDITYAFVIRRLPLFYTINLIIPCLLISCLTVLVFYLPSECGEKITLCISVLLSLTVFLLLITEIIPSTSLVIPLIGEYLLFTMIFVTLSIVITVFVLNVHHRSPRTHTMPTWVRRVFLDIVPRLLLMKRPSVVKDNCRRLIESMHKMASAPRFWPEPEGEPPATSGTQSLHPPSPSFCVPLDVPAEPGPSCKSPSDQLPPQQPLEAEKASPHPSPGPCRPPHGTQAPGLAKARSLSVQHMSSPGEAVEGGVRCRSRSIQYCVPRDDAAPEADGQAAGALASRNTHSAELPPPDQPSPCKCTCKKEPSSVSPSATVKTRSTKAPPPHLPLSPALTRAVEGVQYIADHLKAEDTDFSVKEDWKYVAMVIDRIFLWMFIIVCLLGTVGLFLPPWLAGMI
# Sequence (P17787 26-502): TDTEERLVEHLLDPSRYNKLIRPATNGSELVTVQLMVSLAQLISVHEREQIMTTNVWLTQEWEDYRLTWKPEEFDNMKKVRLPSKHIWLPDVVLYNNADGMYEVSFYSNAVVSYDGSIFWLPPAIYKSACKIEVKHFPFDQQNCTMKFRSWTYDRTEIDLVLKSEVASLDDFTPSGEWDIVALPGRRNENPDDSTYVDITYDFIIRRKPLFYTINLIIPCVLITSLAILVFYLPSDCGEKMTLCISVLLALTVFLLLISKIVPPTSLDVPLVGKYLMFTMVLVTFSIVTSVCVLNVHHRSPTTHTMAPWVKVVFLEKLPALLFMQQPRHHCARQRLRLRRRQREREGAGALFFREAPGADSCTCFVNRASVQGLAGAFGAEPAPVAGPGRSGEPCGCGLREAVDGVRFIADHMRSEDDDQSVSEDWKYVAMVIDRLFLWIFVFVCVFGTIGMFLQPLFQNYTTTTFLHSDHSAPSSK
# test details: Function at human α4β2 NNRs, SH-EP1/human a4b2 cells, FLIPR calcium
# Format: cell-based
# condition parameters: SH-EP1/human a4b2 cells, FLIPR calcium; read-out: Human α4β2 EC50
reported endpoint: EC50 (µM)

[[record]]
compound = "c1cncc(N2CCC3(CCCN3)C2)c1 (racemic)"
system_tested = "human α4β2 NNRs (Homo sapiens, UniProt P17787+P43681)"
readout_unit = "µM"
data_value = 9.1

[[record]]
compound = "c1cncc(N2CC[C@@]3(CCCN3)C2)c1"
system_tested = "human α4β2 NNRs (Homo sapiens, UniProt P17787+P43681)"
readout_unit = "µM"
data_value = 3.9


* * *

In this section we review reported half-life values for a set of compounds.
# test details: Single rising dose (SRD) study of Compound C, plasma pharmacokinetics of racemate and enantiomers
# Type: in vivo
# condition parameters: human, po; 50 mg Compound C (n = 4); plasma; read-out: Mean (SD) Terminal Elimination Half-life (converted)
reported endpoint: half-life (h)

[[record]]
compound = "c1cncc(N2CCC3(CCCN3)C2)c1 (racemic)"
readout_unit = "h"
data_value = 24.8

[[record]]
compound = "c1cncc(N2CC[C@@]3(CCCN3)C2)c1"
readout_unit = "h"
data_value = 21

[[record]]
compound = "c1cncc(N2CC[C@]3(CCCN3)C2)c1"
readout_unit = "h"
data_value = 27.5


* * *

# test details: Single rising dose (SRD) study of Compound C, plasma pharmacokinetics of racemate and enantiomers
# Format: in vivo
# condition parameters: human, plasma, oral; after Compound C 50, 100, 400 mg; read-out: terminal elimination half-life longer than that of Compound B (converted)
reported endpoint: half-life

[[record]]
query_smiles = "c1cncc(N2CC[C@]3(CCCN3)C2)c1"
reported_endpoint = "half-life"
data_value = "~6 h"


* * *

In this section we review reported Ki values for a set of compounds.
# system tested: Rat α7 (Rattus norvegicus)
# Sequence (Q05941 23-502): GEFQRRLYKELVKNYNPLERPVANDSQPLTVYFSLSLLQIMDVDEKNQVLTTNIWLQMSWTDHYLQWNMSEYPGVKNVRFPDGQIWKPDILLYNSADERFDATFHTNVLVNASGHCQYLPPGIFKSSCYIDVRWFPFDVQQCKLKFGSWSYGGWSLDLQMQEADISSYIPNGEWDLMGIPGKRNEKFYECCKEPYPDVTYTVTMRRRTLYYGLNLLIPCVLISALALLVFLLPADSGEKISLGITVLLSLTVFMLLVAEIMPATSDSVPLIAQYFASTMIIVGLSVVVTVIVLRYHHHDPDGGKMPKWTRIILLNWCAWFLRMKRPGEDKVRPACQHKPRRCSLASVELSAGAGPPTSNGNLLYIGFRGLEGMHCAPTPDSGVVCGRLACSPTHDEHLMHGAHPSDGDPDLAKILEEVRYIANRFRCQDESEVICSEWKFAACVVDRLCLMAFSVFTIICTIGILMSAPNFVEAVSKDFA
# test details: Binding to rat α7 NNR (Ki)
# condition parameters: read-out: Rat α7 Ki
reported endpoint: Ki (µM)

[[record]]
query_smiles = "c1cncc(N2CC[C@@]3(CCCN3)C2)c1"
system_tested = "Rat α7 (Rattus norvegicus)"
value_relation_sign = ">"
data_value = 10

[[record]]
query_smiles = "c1cncc(N2CC[C@]3(CCCN3)C2)c1"
system_tested = "Rat α7 (Rattus norvegicus)"
value_relation_sign = "="
data_value = 5.4


* * *

# system tested: Rat α4β2 (Rattus norvegicus, UniProt P09483+P12390)
# Sequence (P09483 31-630): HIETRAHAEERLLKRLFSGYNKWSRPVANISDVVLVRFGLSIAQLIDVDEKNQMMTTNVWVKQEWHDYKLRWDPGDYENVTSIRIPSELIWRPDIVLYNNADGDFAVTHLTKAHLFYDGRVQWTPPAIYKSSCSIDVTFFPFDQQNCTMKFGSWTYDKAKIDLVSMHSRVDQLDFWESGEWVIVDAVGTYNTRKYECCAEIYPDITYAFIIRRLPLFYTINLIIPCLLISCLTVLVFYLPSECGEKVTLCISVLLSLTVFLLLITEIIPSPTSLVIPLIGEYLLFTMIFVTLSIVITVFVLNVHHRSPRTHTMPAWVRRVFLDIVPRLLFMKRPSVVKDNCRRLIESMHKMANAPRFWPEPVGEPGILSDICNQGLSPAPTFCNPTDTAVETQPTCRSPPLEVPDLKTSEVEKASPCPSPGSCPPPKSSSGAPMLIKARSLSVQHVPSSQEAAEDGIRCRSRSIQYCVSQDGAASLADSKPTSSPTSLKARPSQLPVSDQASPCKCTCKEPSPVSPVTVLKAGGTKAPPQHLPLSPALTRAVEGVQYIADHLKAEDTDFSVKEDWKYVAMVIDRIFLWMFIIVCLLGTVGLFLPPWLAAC
# Sequence (P12390 25-500): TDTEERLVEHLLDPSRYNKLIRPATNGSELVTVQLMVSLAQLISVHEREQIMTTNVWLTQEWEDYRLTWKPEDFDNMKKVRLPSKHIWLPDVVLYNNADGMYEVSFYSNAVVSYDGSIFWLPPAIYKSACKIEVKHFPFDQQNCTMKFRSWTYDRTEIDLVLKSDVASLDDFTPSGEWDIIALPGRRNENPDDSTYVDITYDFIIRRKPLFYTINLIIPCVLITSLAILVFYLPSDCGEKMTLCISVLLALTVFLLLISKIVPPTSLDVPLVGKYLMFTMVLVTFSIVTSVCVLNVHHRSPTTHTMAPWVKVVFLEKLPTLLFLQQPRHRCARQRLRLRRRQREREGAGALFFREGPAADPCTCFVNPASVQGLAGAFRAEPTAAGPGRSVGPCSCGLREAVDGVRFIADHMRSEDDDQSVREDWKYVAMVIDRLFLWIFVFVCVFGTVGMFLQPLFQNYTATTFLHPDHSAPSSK
# test details: Binding to rat α4β2 NNR (Ki)
# condition parameters: read-out: Rat α4β2 Ki
reported endpoint: Ki (nM)

[[record]]
query_smiles = "c1cncc(N2CC[C@]3(CCCN3)C2)c1"
reported_endpoint = "Ki"
readout_unit = "nM"
data_value = 74

[[record]]
query_smiles = "c1cncc(N2CC[C@@]3(CCCN3)C2)c1"
reported_endpoint = "Ki"
readout_unit = "nM"
data_value = 82


* * *

# test details: Single rising dose (SRD) study of Compound C, plasma pharmacokinetics of racemate and enantiomers
# Format: in vivo
# condition parameters: human, po; 100 mg Compound C (n = 4); plasma; read-out: AUCinf (mean)
In this section we review reported AUC(0-inf) values for a set of compounds.
reported endpoint: AUC(0-inf)

[[record]]
compound = "c1cncc(N2CC[C@]3(CCCN3)C2)c1 [Compound A]"
data_value = "451 ng·h/mL"

[[record]]
compound = "c1cncc(N2CCC3(CCCN3)C2)c1 (racemic) [Compound C]"
data_value = "741 ng·h/mL"

[[record]]
compound = "c1cncc(N2CC[C@@]3(CCCN3)C2)c1 [Compound B]"
data_value = "364 ng·h/mL"


* * *

# test details: Single rising dose (SRD) study of Compound C, plasma pharmacokinetics of racemate and enantiomers
# Format: in vivo
# condition parameters: human, po; 50 mg Compound C (n = 4); plasma
# Protocol: A single, rising dose (SRD) study was performed with Compound C (the racemate). Plasma samples were analyzed for the content of the two enantiomers, Compound A (substantially pure R), Compound B (substantially pure S). Three dose groups (Compound C) were analyzed, 50, 100, and 400 mg, and four subjects were randomly selected from the 6 subjects tested to receive active treatment in each cohort examined in the SRD study.
reported endpoint: Cmax (ng/mL)

[[record]]
compound = "c1cncc(N2CC[C@@]3(CCCN3)C2)c1"
reported_endpoint = "Cmax"
data_value = 12.1

[[record]]
compound = "c1cncc(N2CCC3(CCCN3)C2)c1 (racemic)"
reported_endpoint = "Cmax"
data_value = 21.8

[[record]]
compound = "c1cncc(N2CC[C@]3(CCCN3)C2)c1"
reported_endpoint = "Cmax"
data_value = 10.3


* * *

In this section we review reported Tmax values for a set of molecules.
# test details: Single rising dose (SRD) study of Compound C, plasma pharmacokinetics of racemate and enantiomers
# Type: in vivo
# condition parameters: human, po; 100 mg Compound C (n = 4); plasma
reported endpoint: Tmax (h)

[[record]]
molecule = "c1cncc(N2CC[C@]3(CCCN3)C2)c1 [Compound A]"
reported_endpoint = "Tmax"
data_value = 3.25

[[record]]
molecule = "c1cncc(N2CC[C@@]3(CCCN3)C2)c1 [Compound B]"
reported_endpoint = "Tmax"
data_value = 2.75

[[record]]
molecule = "c1cncc(N2CCC3(CCCN3)C2)c1 (racemic) [Compound C]"
reported_endpoint = "Tmax"
data_value = 31.1


* * *

# system tested: human α4β2 NNRs (Homo sapiens, UniProt P17787+P43681)
# Construct: expressed in transfected cells; host or cells: SH-EP1
# test details: Function at human α4β2 NNRs, SH-EP1/human a4b2 cells, FLIPR calcium
# Assay type: cell-based
# condition parameters: read-out: EC50 at human α4β2 NNRs
pEC50: −log10 of the molar value.
reported endpoint: pEC50

[[record]]
query_smiles = "c1cncc(N2CC[C@]3(CCCN3)C2)c1"
data_value = 4.08


* * *

In this section we review reported half-life values for a set of molecules.
# test details: Single rising dose (SRD) study of Compound C, plasma pharmacokinetics of racemate and enantiomers
# Type: in vivo
# condition parameters: human, po; 400 mg Compound C (n = 4); plasma; read-out: Mean (SD) Terminal Elimination Half-life (converted)
reported endpoint: half-life (h)

[[record]]
molecule = "c1cncc(N2CC[C@@]3(CCCN3)C2)c1"
reported_endpoint = "half-life"
data_value = 16.6

[[record]]
molecule = "c1cncc(N2CC[C@]3(CCCN3)C2)c1"
reported_endpoint = "half-life"
data_value = 22.4

[[record]]
molecule = "c1cncc(N2CCC3(CCCN3)C2)c1 (racemic)"
reported_endpoint = "half-life"
data_value = 18.5


* * *

# test details: Single rising dose (SRD) study of Compound C, plasma pharmacokinetics of racemate and enantiomers
# Format: in vivo
# condition parameters: human, po; 400 mg Compound C (n = 4); plasma; read-out: AUCinf (mean)
reported endpoint: AUC(0-inf) (ng·h/mL)

[[record]]
molecule = "c1cncc(N2CC[C@@]3(CCCN3)C2)c1"
readout_unit = "ng·h/mL"
data_value = 2130

[[record]]
molecule = "c1cncc(N2CCC3(CCCN3)C2)c1 (racemic)"
readout_unit = "ng·h/mL"
data_value = 3680

[[record]]
molecule = "c1cncc(N2CC[C@]3(CCCN3)C2)c1"
readout_unit = "ng·h/mL"
data_value = 2420


* * *

# test details: Single rising dose (SRD) study of Compound C, plasma pharmacokinetics of racemate and enantiomers
# Format: in vivo
# condition parameters: human, po; 100 mg Compound C (n = 4); plasma
In this section we review reported Cmax values for a set of molecules.
reported endpoint: Cmax (µg/mL)

[[record]]
molecule = "c1cncc(N2CCC3(CCCN3)C2)c1 (racemic) [Compound C]"
reported_endpoint = "Cmax"
data_value = 0.0447

[[record]]
molecule = "c1cncc(N2CC[C@@]3(CCCN3)C2)c1 [Compound B]"
reported_endpoint = "Cmax"
data_value = 0.0246

[[record]]
molecule = "c1cncc(N2CC[C@]3(CCCN3)C2)c1 [Compound A]"
reported_endpoint = "Cmax"
data_value = 0.0227

